TESTED ON: Beta Secretase enzyme (BACE) (Homo sapiens)
Sequence (P56817 46-501, species assumed): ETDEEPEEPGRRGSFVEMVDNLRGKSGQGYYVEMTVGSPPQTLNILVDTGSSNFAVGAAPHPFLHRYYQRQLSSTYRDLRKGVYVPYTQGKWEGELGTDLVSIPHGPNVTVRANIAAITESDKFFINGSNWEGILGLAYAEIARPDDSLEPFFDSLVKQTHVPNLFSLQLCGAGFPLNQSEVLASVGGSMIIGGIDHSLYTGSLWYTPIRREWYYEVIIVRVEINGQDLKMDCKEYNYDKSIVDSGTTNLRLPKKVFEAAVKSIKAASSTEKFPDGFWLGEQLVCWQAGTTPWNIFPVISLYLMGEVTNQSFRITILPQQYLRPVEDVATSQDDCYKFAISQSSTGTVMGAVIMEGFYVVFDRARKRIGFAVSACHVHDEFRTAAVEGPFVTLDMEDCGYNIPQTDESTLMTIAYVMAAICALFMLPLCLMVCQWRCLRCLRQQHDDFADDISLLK
TEST NAME: In vitro enzymatic BACE FRET (fluorescence resonance energy transfer) assay
Assay type: biochemical
SETUP CONDITIONS: average IC50, enzyme assay; read-out: BACE 1 FRET assay
We label by threshold. Values of IC50 strictly beneath 2 nM are T. Values of 2 nM and up are F.

Check out these entries, answers already filled in.
> print(dat)
                                   molecule  class.label
1  COc1cncc(-c2ccc3c(c2)[C@@]2(COC(N)=N2)c2cc(C4CCOCC4)cc(F)c2O3)c1            T
2  Cc1ccnc(F)c1-c1ccc2c(c1)[C@@]1(COC(N)=N1)c1cc(C3=CCOCC3)ncc1O2            T
3  NC1=N[C@@]2(CO1)c1cc(-c3cncc(F)c3)ccc1Oc1c(F)cc(C3CCOCC3)cc12            F
4  Cc1cccc(Oc2ccc3c(c2)[C@@]2(COC(N)=N2)c2cc(C4=CCOCC4)cc(F)c2O3)n1            F

Task: In plain terms, does NC1=N[C@@]2(CO1)c1cc(-c3cccnc3)ccc1Oc1cnc(-c3ccnc(F)c3)cc12 come in under 2 nM for IC50?
Output: F

Task: Threshold test, IC50 < 2 nM: CC#Cc1cncc(-c2ccc3c(c2)[C@@]2(COC(N)=N2)c2cc(OCC(C)(C)C#N)cc(F)c2O3)c1
Output: T

Task: is_below(IC50, 2 nM) for C[Si](C)(C)c1cc2c(nc1F)Oc1ccc(-c3cccnc3F)cc1[C@@]21COC(N)=N1 ?
Output: F

Task: Is IC50 strictly under 2 nM for the entry N#Cc1cccc(-c2ccc3c(c2)[C@@]2(COC(N)=N2)c2cc(N4CCOCC4)ncc2O3)c1 ?
Output: F

Task: Find out if reported IC50 for COc1cncc(-c2ccc3c(c2)[C@@]2(COC(N)=N2)c2cc(C4=CCOCC4)cnc2O3)c1 is less than 2 nM
Output: F

Task: Lab log: compare recorded IC50 with 2 nM; is it strictly lower for N#Cc1cnc2c(c1)C1(CSC(N)=N1)c1cc(-c3cccnc3F)ccc1O2 (centres unmarked) ?
Output: F

Task: I wonder whether CC1(C#Cc2cc3c(cc2F)Oc2ccc(-c4cccnc4F)cc2[C@@]32COC(N)=N2)COC1 has IC50 below 2 nM. Can you tell?
Output: F
